Target: T1, mouse tissue factor pathway inhibitor (TFPI) (mouse, UniProt O54819 29-289, limits assumed)
T1 construct: bought; also called mTFPI; murine TFPI
T1 sequence (looked up): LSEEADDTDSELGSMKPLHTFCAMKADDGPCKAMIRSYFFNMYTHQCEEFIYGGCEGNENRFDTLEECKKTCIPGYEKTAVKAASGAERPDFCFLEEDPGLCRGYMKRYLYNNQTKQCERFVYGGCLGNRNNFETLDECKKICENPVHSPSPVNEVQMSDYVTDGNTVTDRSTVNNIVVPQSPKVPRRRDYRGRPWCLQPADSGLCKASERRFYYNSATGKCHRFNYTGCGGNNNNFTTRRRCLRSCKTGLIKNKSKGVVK
Assay: competitive ELISA
PROPERTY: variant/HC_K99L (ratio)
The reply should be a number in ratio, with the unit left off.

>>> result("2A8 HC S35D+S54F+S55R+K99L/LC D91L+V96W (Fab, V domains shown) VH: QVQLVESGGGLVQPGGSLRLSCAASGFTFRSYGMDWVRQAPGKGLEWVSSIRGFRSSTYYADSVKGRFTISRDNSKNTLYLQMNSLRAEDTAVYYCARLYRYWFDYWGQGTLVTVSS VL: DIELTQPPSVSVAPGQTARISCSGDNLRNYYAHWYQQKPGQAPVVVIYYDNNRPSGIPERFSGSNSGNTATLTISGTQAEDEADYYCQSWLDGVPWFGGGTKLTVLG")
12.1

Now for another entry.
[Q] Requested field: variant/HC_K99L. Item: 2A8 HC Q1E+S31V+S50A+I51D+S55R+S56G+K99V/LC Y48F+D91L+V96W (Fab, V domains shown) VH: EVQLVESGGGLVQPGGSLRLSCAASGFTFRVYGMSWVRQAPGKGLEWVSADRGSRGSTYYADSVKGRFTISRDNSKNTLYLQMNSLRAEDTAVYYCARVYRYWFDYWGQGTLVTVSS VL: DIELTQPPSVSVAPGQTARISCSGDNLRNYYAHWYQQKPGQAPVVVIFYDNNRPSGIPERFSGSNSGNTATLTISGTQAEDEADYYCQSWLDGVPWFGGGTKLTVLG
[A] 7.7
